Species: Rattus norvegicus
experiment: Open TG-GATES - Regimen: Daily Repeat
Format: toxicity, organism-based, Sprague-Dawley
Parameters: regimen Daily Repeat, gender Male, age 6 weeks
study conditions: in vivo, po, 300 mg/kg, […], route gavage, dose level Middle, time 7 day
observable: TERMINAL_BW (g)

# molecule, unit of measure, recorded measurement
measured = [
    ("CC(=O)[C@@]1(O)CC[C@H]2[C@@H]3C=C(Cl)C4=CC(=O)CC[C@]4(C)[C@H]3CC[C@@]21C", "g", 257.8),
    ("CCCCNC(=O)NS(=O)(=O)c1ccc(C)cc1 [TOLBUTAMIDE]", "g", 265.6),
    ("O=C(O)c1ccccc1Nc1ccccc1", "g", 275.7),
    ("CC(S)C(=O)NCC(=O)O (centres undefined)", "g", 258),
]
